molecular target: MASP-2 (CCP1-CCP2-SP) (Homo sapiens (Human), UniProt O00187); test: biochemical; type: biochemical; conditions: selectivity for MASP-2 inhibition versus thrombin
Sequence (O00187 445-686): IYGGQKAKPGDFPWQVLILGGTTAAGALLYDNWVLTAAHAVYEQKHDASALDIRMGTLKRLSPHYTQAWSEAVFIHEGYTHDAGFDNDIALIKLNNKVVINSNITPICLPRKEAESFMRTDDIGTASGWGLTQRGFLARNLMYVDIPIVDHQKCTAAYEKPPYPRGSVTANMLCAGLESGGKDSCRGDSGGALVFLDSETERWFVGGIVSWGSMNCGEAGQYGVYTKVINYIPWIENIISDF
Where a name gives a salt, the structure may show the parent alone.
measured.property: MASP-2 vs. thrombin selectivity

Example cases with answers are listed next.
molecule	measured.property	measurement
Cc1cnc(NCCc2ccccc2)c(=O)n1CC(=O)NCc1ccc2c(N)nccc2c1	MASP-2 vs. thrombin selectivity	−− (<1.0-fold)
Cc1nc(N)ccc1CNC(=O)[C@H](C)NC(=O)[C@H]1C[C@@H](Oc2ccccc2)CN1 [compound 1310, Dihydrochloride]	MASP-2 vs. thrombin selectivity	*** (≥25 to <100-fold)
Cc1cnc(NCCc2ccccc2)c(=O)n1CC(=O)NCc1cc(Cl)ccc1-n1cnnn1	MASP-2 vs. thrombin selectivity	−− (<1.0-fold)
Cc1cccc(C[C@@H]2CN[C@@H](C(=O)N[C@@H](C)C(=O)NCc3ccc(N)nc3C)C2)c1 [compound 1337, dihydrochloride]	MASP-2 vs. thrombin selectivity	**** (≥100-fold)
C[C@H](NC(=O)[C@H]1C[C@@H](c2ccccc2)CCN1)C(=O)NCc1cc(Cl)ccc1-n1cnnn1 [compound 1426, Trifluoroacetate]	MASP-2 vs. thrombin selectivity	*** (≥25 to <100-fold)
Cc1nc(N)ccc1CNC(=O)[C@H](C)NC(=O)[C@H]1C[C@H](Cc2ccc(Cl)c(Br)c2)CN1 [compound 1451, Di-trifluoroacetate salt]	MASP-2 vs. thrombin selectivity	**** (≥100-fold)
COc1ccc(C[C@@H]2CN[C@@H](C(=O)N[C@@H](C)C(=O)NCc3ccc(N)nc3C)C2)cc1Cl [compound 1475, Di-trifluoroacetate salt]	MASP-2 vs. thrombin selectivity	**** (≥100-fold)
CC(C)c1cccc([C@H]2CN[C@@H](C(=O)N[C@@H](C)C(=O)NCc3ccc(C(=N)N)cc3)C2)c1 [compound 1316, Dihydrochloride]	MASP-2 vs. thrombin selectivity	*** (≥25 to <100-fold)
Cc1nc(N)ccc1CNC(=O)[C@H](C)NC(=O)[C@@H](CCc1ccccc1)NCc1ccc(C(=O)N2CCOCC2)cc1 [compound 1381, Di-trifluoroacetate salt]	MASP-2 vs. thrombin selectivity	** (≥5.0 to <25-fold)
CC[C@H](NC(=O)[C@H]1C[C@H](c2ccccc2)CN1)C(=O)NCc1ccc(C(=N)N)cc1	MASP-2 vs. thrombin selectivity	** (≥5.0 to <25-fold)

Each of the following entries comes with a recorded value; kindly state MASP-2 vs. thrombin selectivity for each.
1. Cc1nc(N)ccc1CNC(=O)[C@H](C)NC(=O)[C@H]1C[C@H](Cc2ccc(C#N)cc2)CN1 [compound 1428, Di-trifluoroacetate salt]
2. C[C@H](NC(=O)[C@@H]1C[C@@H](Cc2ccccc2)CN1)C(=O)NCc1ccc(C(=N)N)cc1

result:
1. **** (≥100-fold)
2. ** (≥5.0 to <25-fold)

====

target: MASP-2 (CCP1-CCP2-SP) (Homo sapiens (Human)); assay: biochemical; assay type: biochemical
pKi: −log10 of the molar value. Counter-ions that a name gives are not always drawn.
Please go through the items and note down their pKi.

compound	measurement
C[C@H](NC(=O)[C@H]1C[C@H](c2ccccc2)CN1)C(=O)NCc1cc(Cl)cc(Cl)c1O [compound 1395, Trifluoroacetate]	5.60 to 6.30

Each of the following entries comes with a recorded value; kindly state pKi for each.
1. C[C@H](NC(=O)c1cc(-c2ccccc2)c(-c2ccccc2)[nH]1)C(=O)NCc1ccc(C(=N)N)cc1
2. Cc1nc(N)ccc1CNC(=O)[C@H](C)NC(=O)[C@H]1C[C@H](Cc2cc(C(F)(F)F)cc(C(F)(F)F)c2)CN1 [compound 1424, Di-trifluoroacetate salt]
3. Cc1cc(Cl)cc(CNC(=O)[C@H](C)NC(=O)[C@H]2C[C@H](c3ccccc3)CN2)c1 [compound 1333, Hydrochloride]
4. C[C@H](NC(=O)[C@H]1C[C@H](c2ccccc2)CN1)C(=O)NCc1cc2c(Br)cncc2[nH]1 [compound 1493, Di-trifluoroacetate salt]
5. N=C(N)c1ccc2[nH]c(-c3cc4ccccc4cn3)nc2c1 [compound 2014, dihydrochloride]

result:
1: 5.60 to 6.30; 2: 5.60 to 6.30; 3: 5.00 to 5.60; 4: 4.60 to 5.00; 5: < 4.60
